Values compiled from patent US20170267768A1.

- targetSystem: T1, human EphA2 on OVCAR-3 and U-251 cells (human, UniProt P29317 24-976)
- T1 construct: whole, on cells; also called EphA2 receptors
- T1 sequence (P29317 24-976): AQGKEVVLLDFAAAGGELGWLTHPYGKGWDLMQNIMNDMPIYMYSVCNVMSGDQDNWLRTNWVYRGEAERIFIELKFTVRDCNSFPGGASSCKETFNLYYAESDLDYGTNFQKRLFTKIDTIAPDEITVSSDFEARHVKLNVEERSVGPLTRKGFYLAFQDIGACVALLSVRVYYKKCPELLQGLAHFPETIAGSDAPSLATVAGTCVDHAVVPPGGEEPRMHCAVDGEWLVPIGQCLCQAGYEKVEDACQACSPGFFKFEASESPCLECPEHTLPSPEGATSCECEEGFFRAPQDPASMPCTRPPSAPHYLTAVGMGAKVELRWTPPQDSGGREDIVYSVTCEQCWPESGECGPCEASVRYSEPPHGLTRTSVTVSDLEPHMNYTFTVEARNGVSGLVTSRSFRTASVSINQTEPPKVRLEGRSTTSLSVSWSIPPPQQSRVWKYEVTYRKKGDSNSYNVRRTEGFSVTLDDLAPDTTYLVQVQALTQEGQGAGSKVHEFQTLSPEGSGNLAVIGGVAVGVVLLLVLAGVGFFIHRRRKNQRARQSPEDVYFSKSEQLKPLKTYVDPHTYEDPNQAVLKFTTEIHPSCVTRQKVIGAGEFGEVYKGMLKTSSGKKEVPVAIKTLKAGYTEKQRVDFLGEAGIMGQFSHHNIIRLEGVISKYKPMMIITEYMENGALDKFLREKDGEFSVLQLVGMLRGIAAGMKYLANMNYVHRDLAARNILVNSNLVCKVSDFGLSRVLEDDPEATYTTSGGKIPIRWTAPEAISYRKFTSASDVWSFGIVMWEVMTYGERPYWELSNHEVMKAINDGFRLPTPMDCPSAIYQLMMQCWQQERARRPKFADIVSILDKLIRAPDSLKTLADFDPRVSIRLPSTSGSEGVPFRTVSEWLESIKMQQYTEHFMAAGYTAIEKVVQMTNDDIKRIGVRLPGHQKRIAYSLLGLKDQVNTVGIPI
- assayExplanation: CLIA: scFv-decorated fluorescent NTA(Ni) liposomes on EphA2-expressing cells, FACS

binder: scFv-20 (scFv) scFv: QVQLVQSGGGLVQPGGSLRLSCAASGFTFSSYAMHWVRQAPGKGLEWVTVISHDGTNTYYADSVKGRFTISRDNSKNTLYLQMNSLRAEDTAVYYCARASVGATGPFDIWGQGTLVTVSSASTGGGGSGGGGSGGGGSGGGGSSSELTQPPSVSVAPGQTVTITCQGDSLRSYYASWYQQKPGTAPKLLIYGENNRPSGVPDRFSGSSSGTSASLTITGAQAEDEADYYCNSRDSSGTHLTVFGGGTKLTVLG
binding result: binds
//
binder: scFv-14 (scFv) scFv: QVQLVQSGGGLVQPGGSLRLSCAASGFTFSSYAMHWVRQAPGKGLEWVTVISPAGPNKYYADSVKGRFTISRDNSKNTLYLQMNSLRAEDTAVYYCARASVGATGPFDIWGQGTLVTVSSASTGGGGSGGGGSGGGGSGGGGSSSELTQPPSVSVAPGQTVTITCQGDSLRSYYASWYQQKPGTAPKLLIYGENNRPSGVPDRFSGSSSGTSASLTITGAQAEDEADYYCNSRDSSGTHLTVFGGGTKLTVLG
binding result: binds
//
binder: scFv-16 (scFv) scFv: QVQLVQSGGGLVQPGGSLRLSCAASGFTFSSYAMHWVRQAPGKGLEWVSVISNNGHNTYYADSVKGRFTISRDNSKNTLYLQMNSLRAEDTAVYYCARASVGATGPFDIWGQGTLVTVSSASTGGGGSGGGGSGGGGSGGGGSSSELTQPPSVSVAPGQTVTITCQGDSLRSYYASWYQQKPGTAPKLLIYGENNRPSGVPDRFSGSSSGTSASLTITGAQAEDEADYYCNSRDSSGTHLTVFGGGTKLTVLG
binding result: binds
